These data points were gathered from paper PMC6885686.

target.entity: TDP-43 RRM1-2 WT (UniProt Q13148 102-269)
Sequence (Q13148 102-269): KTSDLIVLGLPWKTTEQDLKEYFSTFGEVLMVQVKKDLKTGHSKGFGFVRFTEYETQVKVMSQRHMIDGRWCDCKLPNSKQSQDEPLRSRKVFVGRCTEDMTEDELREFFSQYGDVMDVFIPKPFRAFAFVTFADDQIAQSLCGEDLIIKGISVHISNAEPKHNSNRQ
assay.info: BLI; EMSA: 5 ug total lysate in RIPA with RNase inhibitor, 2 ug tRNA, 1 uM unlabelled (GU)x6 and 2.5 nM biotin-(GU)x6, 30 min room temperature, 6% native PAGE; BLI buffer not given in the material (protein purified in phosphate buffer pH 7.2)
setup.conditions: protein: recombinant; tags: 6xHis-SUMO removed by TEV
pKd: −log10 of the molar value.

| binder | pKd |
| --- | --- |
| GUGUGAAUGAAU (ssRNA) [AUG-RNA] | 8.49 |
